System: MCF7 breast
EXPERIMENT DESCRIPTION: NCI tumour cell line growth inhibition, 48 h
PROPERTY NAME: TGI

INSERT INTO measurements (compound, endpoint_value) VALUES
  ('CN(NC(=O)c1cccs1)C1=NCCCN1', '> 100 µM'),
  ('CN(C)c1ccc(C2SCC(=O)N2NS(=O)(=O)c2cccc(C(=O)O)c2)cc1 (stereo not given)', '> 100 µM'),
  ('COc1ccc2c(O)cc3c(c2c1)[C@H](CCl)CN3C(=O)c1cc2cc(NC(=O)CCN3CCOCC3)ccc2[se]1', '1.39 µM'),
  ('CCC(C)(C)c1ccc(OCCCCCCN2CCNCC2)cc1', '3.2 µM'),
  ('CCN1C(=O)C(=C/C=C/c2ccc([N+](=O)[O-])cc2)C(=O)N(CC)C1=S', '52.5 µM'),
  ('Cc1cn(C2CC(n3cc(Cn4cc(Br)c(=O)[nH]c4=O)nn3)C(CO)O2)c(=O)[nH]c1=O (stereo not given)', '> 100 µM'),
  ('Nc1nc(SN=Nc2ccc(S(N)(=O)=O)cc2)c2[nH]cnc2n1', '> 100 µM'),
  ('NC(CS/C(Cl)=C/Cl)C(=O)O (stereo not given)', '> 100 µM'),
  ('NC(=O)NNC(=O)c1nc[nH]c1[N+](=O)[O-]', '> 100 µM'),
  ('CC(=O)c1ccc2c3c1[C@@H]1O[C@@H]1c1cccc(c1-3)[C@@H]1O[C@H]21', '> 40.1 µM');
